system.name: PARP1 (Gallus gallus)
Sequence (P26446 whole entry): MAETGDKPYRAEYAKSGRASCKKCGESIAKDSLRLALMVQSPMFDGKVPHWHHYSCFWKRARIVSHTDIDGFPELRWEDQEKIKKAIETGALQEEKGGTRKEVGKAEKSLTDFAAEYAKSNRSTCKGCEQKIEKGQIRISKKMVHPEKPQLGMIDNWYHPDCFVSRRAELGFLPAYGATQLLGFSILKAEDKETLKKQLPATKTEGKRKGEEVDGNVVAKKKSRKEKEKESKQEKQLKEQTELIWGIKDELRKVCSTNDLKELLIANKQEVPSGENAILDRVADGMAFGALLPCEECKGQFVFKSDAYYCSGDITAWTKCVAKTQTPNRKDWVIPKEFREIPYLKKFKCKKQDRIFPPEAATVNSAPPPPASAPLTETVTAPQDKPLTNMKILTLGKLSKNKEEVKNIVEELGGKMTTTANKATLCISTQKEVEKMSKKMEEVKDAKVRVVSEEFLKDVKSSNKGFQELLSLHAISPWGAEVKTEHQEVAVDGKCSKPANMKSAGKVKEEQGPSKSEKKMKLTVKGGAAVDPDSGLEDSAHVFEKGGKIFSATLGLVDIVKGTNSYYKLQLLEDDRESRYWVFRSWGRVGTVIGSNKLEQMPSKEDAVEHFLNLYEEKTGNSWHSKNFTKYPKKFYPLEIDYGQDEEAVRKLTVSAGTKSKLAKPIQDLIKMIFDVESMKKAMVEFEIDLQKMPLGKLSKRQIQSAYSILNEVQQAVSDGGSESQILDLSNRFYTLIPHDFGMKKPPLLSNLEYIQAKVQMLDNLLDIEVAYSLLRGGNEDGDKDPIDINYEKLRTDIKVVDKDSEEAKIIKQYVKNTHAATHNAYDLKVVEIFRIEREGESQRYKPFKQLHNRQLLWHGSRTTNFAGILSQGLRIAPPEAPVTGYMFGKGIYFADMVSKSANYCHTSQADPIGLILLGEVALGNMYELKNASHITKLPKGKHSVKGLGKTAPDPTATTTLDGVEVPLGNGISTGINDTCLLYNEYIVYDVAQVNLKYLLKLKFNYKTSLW
assay.procedure: PAR ELISA assay
Format: cell-based
condition.notes: read-out: IC50 Poly (ADP-ribose) lation; PAR ELISA
measure: IC50 (µM)
# unit: µM | format: bare number

Entry O=C(Nc1cccc2c(=O)[nH][nH]c(=O)c12)c1ccc([N+](=O)[O-])cc1 , IC50 reported as 4.6

###

system.name: PARP1 (Gallus gallus)
assay.procedure: PAR ELISA assay
Format: cell-based
pIC50: −log10 of the molar value.
measure: pIC50

Entry C[C@]1(c2nc3c(C(N)=O)cccc3[nH]2)CCCN1 [Veliparib, reference compound] , pIC50 reported as > 7.70
